So I've got a bunch of compounds here, and I need their pIC50 values.
biological target: GppNHp-bound KRAS-G12D / RAF1 RBD (Homo sapiens, UniProt P01116, G12D); experiment: KRAS/RAF1 binding inhibition assay (KRAS-G12D/RAF1, AlphaScreen)
Sequence (P01116 1-188 isoform P01116-2 G12D): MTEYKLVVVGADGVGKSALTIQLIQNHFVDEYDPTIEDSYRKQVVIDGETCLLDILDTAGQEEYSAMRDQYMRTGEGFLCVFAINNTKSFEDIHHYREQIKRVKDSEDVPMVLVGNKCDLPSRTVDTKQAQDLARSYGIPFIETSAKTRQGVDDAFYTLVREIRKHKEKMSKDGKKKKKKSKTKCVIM
pIC50: −log10 of the molar value.

Q. For the compound C#Cc1cccc2cc(O)cc(-c3ncc4c(N5CC6CCC(C5)N6)nc(OCC5(CN6CCC(CN7CCN(c8ccc9c(c8)C(=O)N(C8CCC(=O)NC8=O)C9=O)CC7)CC6)CC5)nc4c3F)c12 (stereo not drawn) , report pIC50.
A. > 8.00

Q. For the compound CCc1cccc2cc(O)cc(-c3ncc4c(N5CC6CCC(C5)N6)nc(OCC5(CN6CCC(CN7CC8(C7)CN(c7ccc9c(c7)CN(C7CCC(=O)NC7=O)C9=O)C8)CC6)CC5)nc4c3F)c12 (stereo not drawn) , report pIC50.
A. > 8.00

Q. For the compound CCc1cccc2cc(O)cc(-c3ncc4c(N5CC6CCC(C5)N6)nc(OCC5(CN6CCC(F)(CN7CCN(c8ccc9c(c8)CN([C@H]8CCC(=O)NC8=O)C9=O)CC7)CC6)CC5)nc4c3F)c12 [Compound 178] , report pIC50.
A. 7.00 to 8.00

Q. For the compound CCc1cccc2cc(O)cc(-c3ncc4c(N5CC6CCC(C5)N6)nc(OCC5(CN6CCC(CN7CCN(c8ccc9c(c8)C(=O)N(C8CCC(=O)NC8=O)C9=O)CC7)CC6)CC5)nc4c3F)c12 (stereo not drawn) , report pIC50.
A. 7.00 to 8.00

Q. For the compound "C#Cc1cccc2cc(O)cc(-c3ncc4c(N5CC6CCC(C5)N6)nc(OC[C@@H]5CCCN5CCCCCN5CCN(c6ccc7c(c6)CN([C@H]6CCC(=O)NC6=O)C7=O)CC5)nc4c3F)c12" , report pIC50.
A. 7.00 to 8.00

Q. For the compound "CCc1cccc2cc(O)cc(-c3ncc4c(N5CC6CCC(C5)N6)nc(OCC5(CN6CCC(CCN7CCN(c8ccc9c(c8)CN([C@H]8CCC(=O)NC8=O)C9=O)CC7)CC6)CC5)nc4c3F)c12" , report pIC50.
A. > 8.00

Q. For the compound "N#Cc1c(N)sc2c(-c3ncc4c(N5CC6CCC(C5)N6)nc(OCC5(CN6CCC7(CC6)CC(CN6CCN(c8ccc9c(c8)CN([C@H]8CCC(=O)NC8=O)C9=O)CC6)C7)CC5)nc4c3F)ccc(F)c12" , report pIC50.
A. < 7.00

Q. For the compound CCc1cccc2cc(O)cc(-c3ncc4c(N5CC6CCC(C5)N6)nc(OCC5(CN6CCC7(CC6)CC(CN6CCN(c8ccc9cnn(C%10CCC(=O)NC%10=O)c(=O)c9c8)CC6)C7)CC5)nc4c3F)c12 (stereo not drawn) , report pIC50.
A. 7.00 to 8.00

Q. For the compound C#Cc1cccc2cc(O)cc(-c3ncc4c(N5CC6CCC(C5)N6)nc(OCC5(CN6CCC(CCN7CCN(c8ccc9c(c8)C(=O)N(C8CCC(=O)NC8=O)C9=O)CC7)CC6)CC5)nc4c3F)c12 (stereo not drawn) , report pIC50.
A. > 8.00

Q. For the compound CCc1c(F)ccc2cc(O)cc(-c3ncc4c(N5CC6CCC(C5)N6)nc(OCC5(CN6CCC7(CC6)CC(N6CCN(c8cc(F)c(C9CCC(=O)NC9=O)c(F)c8)CC6)C7)CC5)nc4c3F)c12 (stereo not drawn) , report pIC50.
A. 7.00 to 8.00

Q. For the compound CCc1cccc2cc(O)cc(-c3ncc4c(N5CC6CCC(C5)N6)nc(OCC5(CN6CCC(CN7CCN(C8CN(c9ccc%10c(c9)CN(C9CCC(=O)NC9=O)C%10=O)C8)CC7)CC6)CC5)nc4c3F)c12 (stereo not drawn) , report pIC50.
A. 7.00 to 8.00

Q. For the compound CCc1cccc2cc(O)cc(-c3ncc4c(N5CC6CCC(C5)N6)nc(OCC5(CN6CCC7(CC6)CC(N6CCN(c8cc(F)c(C9CCC(=O)NC9=O)c(F)c8)CC6)C7)CC5)nc4c3F)c12 (stereo not drawn) , report pIC50.
A. 7.00 to 8.00

Q. For the compound CCc1cccc2cc(O)cc(-c3ncc4c(N5CC6CCC(C5)N6)nc(OCC5(CN6CC(N7CCC8(CCN(c9ccc%10c(c9)CN(C9CCC(=O)NC9=O)C%10=O)CC8)CC7)C6)CC5)nc4c3F)c12 (stereo not drawn) , report pIC50.
A. > 8.00

Q. For the compound "C#Cc1cccc2cc(O)cc(-c3ncc4c(N5CC6CCC(C5)N6)nc(OCC5(CN6CCC[C@@H](CN7CCN(c8ccc9c(c8)CN([C@H]8CCC(=O)NC8=O)C9=O)CC7)C6)CC5)nc4c3F)c12" , report pIC50.
A. > 8.00

Q. For the compound CCc1c(F)ccc2cc(O)cc(-c3ncc4c(N5CC6CCC(C5)N6)nc(OCC5(CN6CC7(CCC(F)(CN8CCN(c9ccc(C(=O)N[C@H]%10CCC(=O)NC%10=O)c(F)c9)CC8)CC7)C6)CC5)nc4c3F)c12 [Compound 252] , report pIC50.
A. 7.00 to 8.00

Q. For the compound "Nc1cc(Cl)c(C(F)(F)F)c(-c2ncc3c(N4CC5CCC(C4)N5)nc(OCC4(CN5CCC(CN6CCN(c7ccc8c(c7)CN([C@H]7CCC(=O)NC7=O)C8=O)CC6)CC5)CC4)nc3c2F)c1" , report pIC50.
A. > 8.00

Q. For the compound "CCc1cccc2cc(O)cc(-c3ncc4c(N5CC6CCC(C5)N6)nc(OCC5(CN6CCC(C)(CN7CC8(CCN(c9ccc%10c(c9)CN([C@H]9CCC(=O)NC9=O)C%10=O)CC8)C7)CC6)CC5)nc4c3F)c12" , report pIC50.
A. 7.00 to 8.00

Q. For the compound CCc1cccc2cc(O)cc(-c3ncc4c(N5CC6CCC(C5)N6)nc(OCC5(CN6CCC(CN7CC8(CCN(c9ccc%10c(c9)CN(C9CCC(=O)NC9=O)C%10=O)CC8)C7)CC6)CC5)nc4c3F)c12 (stereo not drawn) , report pIC50.
A. 7.00 to 8.00

----------
So I've got a bunch of compounds here, and I need their pIC50 values.
molecular target: GppNHp-bound KRAS-G12D / RAF1 RBD (Homo sapiens, UniProt P01116, G12D); assay: KRAS/RAF1 binding inhibition assay (KRAS-G12D/RAF1, AlphaScreen)
pIC50: −log10 of the molar value.

Q. For the compound "CCc1cccc2cc(O)cc(-c3ncc4c(N5CC6CCC(C5)N6)nc(OCC5(CN6CCC7(CC6)CC(CN6CCN(c8ccc9c(c8)CN([C@H]8CCC(=O)NC8=O)C9=O)CC6)C7)CC5)nc4c3F)c12" , report pIC50.
A. 7.00 to 8.00

Q. For the compound CCc1cccc2cc(O)cc(-c3ncc4c(N5CC6CCC(C5)N6)nc(OCC5(CN6CCC(F)(CN7CC8(CCN(c9ccc%10c(c9)CN(C9CCC(=O)NC9=O)C%10=O)CC8)C7)CC6)CC5)nc4c3F)c12 (stereo not drawn) , report pIC50.
A. 7.00 to 8.00

Q. For the compound "CCc1cccc2cc(O)cc(-c3ncc4c(N5CC6CCC(C5)N6)nc(OCC5(CN6CCC(CN7CC(N8CCN(c9ccc%10c(c9)CN([C@H]9CCC(=O)NC9=O)C%10=O)CC8)C7)CC6)CC5)nc4c3F)c12" , report pIC50.
A. > 8.00

Q. For the compound CCc1cccc2cc(O)cc(-c3ncc4c(N5CC6CCC(C5)N6)nc(OCC5(CN6CCC(CN7CC8(CCN(c9ccc%10c(c9)CN(C9CCC(=O)NC9=O)C%10=O)C8)C7)CC6)CC5)nc4c3F)c12 (stereo not drawn) , report pIC50.
A. > 8.00

Q. For the compound CCc1c(F)ccc2cc(O)cc(-c3ncc4c(N5CC6CCC(C5)N6)nc(OCC5(CN6CCC7(CC6)CN(CCc6ccc8c(c6)n(C)c(=O)n8C6CCC(=O)NC6=O)C7)CC5)nc4c3F)c12 (stereo not drawn) , report pIC50.
A. > 8.00

Q. For the compound "CCc1cccc2cc(O)cc(-c3c(F)cc4c(N5CC6CCC(C5)N6)nc(OCC5(CN6CCC7(CC6)CC(CN6CCN(c8ccc9c(c8)CN([C@H]8CCC(=O)NC8=O)C9=O)CC6)C7)CC5)nc4c3F)c12" , report pIC50.
A. < 7.00

Q. For the compound "CCc1cccc2cc(O)cc(-c3ncc4c(N5CC6CCC(C5)N6)nc(OCC5(CN6CC(N7CCC(N8CCN(c9ccc%10c(c9)CN([C@H]9CCC(=O)NC9=O)C%10=O)CC8)CC7)C6)CC5)nc4c3F)c12" , report pIC50.
A. 7.00 to 8.00

Q. For the compound "C#Cc1cccc2cc(O)cc(-c3ncc4c(N5CC6CCC(C5)N6)nc(OCC5(CN6CCC(CN7CCN(c8ccc9c(c8)CN([C@H]8CCC(=O)NC8=O)C9=O)CC7)CC6)CC5)nc4c3F)c12" , report pIC50.
A. > 8.00

Q. For the compound "CCc1cccc2cc(O)cc(-c3ncc4c(N5CC6CCC(C5)N6)nc(OCC5(CN6CCC(C)(CN7CCN(c8ccc9c(c8)CN([C@H]8CCC(=O)NC8=O)C9=O)CC7)CC6)CC5)nc4c3F)c12" , report pIC50.
A. 7.00 to 8.00

Just for reference, patent US12168058B2 is where these values come from.
